# System: Phospholipidosis
# METHOD: Literature-mined public compounds from Lowe et al phospholipidosis modelling dataset

{"MOLECULE": "CC(C)(Oc1ccc(C2CC2(Cl)Cl)cc1)C(=O)O (stereo unspecified) [CIPROFIBRATE]", "Phospholipidosis": "Negative"}
{"MOLECULE": "Clc1ccc(C(c2ccccc2)N2CCNCC2)cc1 (stereo unspecified) [NORCHLORCYCLIZINE]", "Phospholipidosis": "Positive"}
{"MOLECULE": "CNCCCC12CCC(c3ccccc31)c1ccccc12 [MAPROTILINE]", "Phospholipidosis": "Positive"}
{"MOLECULE": "C[C@H]1c2cccc(O)c2C(=O)C2=C(O)[C@]3(O)C(=O)C(C(N)=O)=C(O)[C@@H](N(C)C)[C@@H]3[C@@H](O)[C@@H]21.O [DOXYCYCLINE]", "Phospholipidosis": "Negative"}
{"MOLECULE": "CC(C)NCC(O)COc1cccc2ccccc12 (stereo unspecified) [PROPRANOLOL]", "Phospholipidosis": "Positive"}
{"MOLECULE": "CNC(=O)Oc1ccc2c(c1)[C@]1(C)CCN(C)[C@@H]1N2C [PHYSOSTIGMINE]", "Phospholipidosis": "Negative"}
{"MOLECULE": "CC1(C)OCC(C(CS(=O)(=O)c2ccc(Oc3cccc(OC(F)(F)F)c3)cc2)NC=O)O1 (stereo unspecified)", "Phospholipidosis": "Negative"}
{"MOLECULE": "NC(N)=Nc1nc(CSCCC(N)=NS(N)(=O)=O)cs1 [FAMOTIDINE]", "Phospholipidosis": "Negative"}
{"MOLECULE": "CN1CCN2c3ccccc3Cc3ccccc3C2C1 (stereo unspecified) [MIANSERIN]", "Phospholipidosis": "Positive"}
{"MOLECULE": "C=C1C[C@@H]1C[C@H](N)C(=O)O", "Phospholipidosis": "Negative"}
{"MOLECULE": "CCN(CC)Cc1cc(Nc2ccnc3cc(Cl)ccc23)ccc1O.Cl", "Phospholipidosis": "Positive"}
{"MOLECULE": "CNCCCN1c2ccccc2CCc2ccccc21 [DESIPRAMINE]", "Phospholipidosis": "Positive"}
{"MOLECULE": "CC(=O)Nc1ccc(O)cc1 [ACETAMINOPHEN]", "Phospholipidosis": "Negative"}
{"MOLECULE": "CCOc1ccc(NC(C)=O)cc1 [PHENACETIN]", "Phospholipidosis": "Positive"}
{"MOLECULE": "CN(C)CCC=C1c2ccccc2CCc2ccccc21 [AMITRIPTYLINE]", "Phospholipidosis": "Positive"}
{"MOLECULE": "N=C(N)c1ccc(/C=C/c2ccc(C(=N)N)cc2)cc1 [STILBAMIDINE]", "Phospholipidosis": "Positive"}
{"MOLECULE": "CC[C@H]1OC(=O)[C@H](C)[C@@H](O[C@H]2C[C@@](C)(OC)[C@@H](O)[C@H](C)O2)[C@H](C)[C@@H](O[C@@H]2O[C@H](C)C[C@H](N(C)C)[C@H]2O)[C@](C)(OC)C[C@@H](C)C(=O)[C@H](C)[C@@H](O)[C@]1(C)O [CLARITHROMYCIN]", "Phospholipidosis": "Negative"}
{"MOLECULE": "C[n+]1ccc(-c2cc[n+](C)cc2)cc1", "Phospholipidosis": "Positive"}
{"MOLECULE": "CN/C(=N/CCSCc1nc[nH]c1C)NC#N [CIMETIDINE]", "Phospholipidosis": "Negative"}
{"MOLECULE": "FC(F)(F)c1ccc(-c2ccc(OCCN3CCCC3)cc2)cc1 [BOXIDINE]", "Phospholipidosis": "Positive"}
{"MOLECULE": "Cc1cn([C@H]2C=C[C@@H](CO)O2)c(=O)[nH]c1=O [STAVUDINE]", "Phospholipidosis": "Negative"}
{"MOLECULE": "CC1(C)NC(=O)N(C[C@@H](COc2ccc(-c3ccc(OC(F)(F)F)cc3)cc2)N(O)C=O)C1=O", "Phospholipidosis": "Negative"}
{"MOLECULE": "CN(C)CCCN1c2ccccc2Sc2ccc(Cl)cc21 [CHLORPROMAZINE]", "Phospholipidosis": "Positive"}
{"MOLECULE": "CC(c1cc2ccccc2s1)N(O)C(N)=O (stereo unspecified) [ZILEUTON]", "Phospholipidosis": "Negative"}
{"MOLECULE": "Cc1ccc(C(=O)Nc2ccc(S(=O)(=O)O)c3cc(S(=O)(=O)O)cc(S(=O)(=O)O)c23)cc1NC(=O)c1cccc(NC(=O)Nc2cccc(C(=O)Nc3cc(C(=O)Nc4ccc(S(=O)(=O)O)c5cc(S(=O)(=O)O)cc(S(=O)(=O)O)c45)ccc3C)c2)c1 [SURAMIN]", "Phospholipidosis": "Positive"}
{"MOLECULE": "CCCC(CCC)C(=O)O [VALPROIC ACID]", "Phospholipidosis": "Negative"}
{"MOLECULE": "Cc1cc(NS(=O)(=O)c2ccc(N)cc2)no1 [SULFAMETHOXAZOLE]", "Phospholipidosis": "Negative"}
{"MOLECULE": "N#Cc1ccc(NC(=O)N=C(N)N)cc1Cl [CLOGUANAMIL]", "Phospholipidosis": "Positive"}
{"MOLECULE": "COc1cc2c(cc1OC)C(=O)C(CC1CCN(Cc3ccccc3)CC1)C2 (stereo unspecified) [DONEPEZIL]", "Phospholipidosis": "Negative"}
{"MOLECULE": "CN1C(=O)CN=C(c2ccccc2)c2cc(Cl)ccc21 [DIAZEPAM]", "Phospholipidosis": "Negative"}
{"MOLECULE": "NCCc1cc(O)c(O)c(O)c1", "Phospholipidosis": "Positive"}
{"MOLECULE": "NCC[C@H](O)C(=O)N[C@@H]1C[C@H](N)[C@@H](O[C@H]2O[C@H](CN)[C@@H](O)[C@H](O)[C@H]2O)[C@H](O)[C@H]1O[C@H]1O[C@H](CO)[C@@H](O)[C@H](N)[C@H]1O [AMIKACIN]", "Phospholipidosis": "Positive"}
{"MOLECULE": "CCC[C@@H]1C[C@@H](C(=O)N[C@@H]([C@H]2O[C@H](SC)[C@H](O)[C@@H](O)[C@H]2O)[C@H](C)Cl)N(C)C1 [CLINDAMYCIN]", "Phospholipidosis": "Positive"}
{"MOLECULE": "CN1C(C(=O)Nc2ccccn2)=C(O)c2ccccc2S1(=O)=O [PIROXICAM]", "Phospholipidosis": "Negative"}
{"MOLECULE": "NC(=O)OCC(COC(N)=O)c1ccccc1 [FELBAMATE]", "Phospholipidosis": "Negative"}
{"MOLECULE": "O=C(O)c1cc(-c2ccc(F)cc2F)ccc1O [DIFLUNISAL]", "Phospholipidosis": "Negative"}
